tgt: Neuropeptide Y receptor type 5 (Gallus gallus)
Sequence (Q8QFM2 whole entry): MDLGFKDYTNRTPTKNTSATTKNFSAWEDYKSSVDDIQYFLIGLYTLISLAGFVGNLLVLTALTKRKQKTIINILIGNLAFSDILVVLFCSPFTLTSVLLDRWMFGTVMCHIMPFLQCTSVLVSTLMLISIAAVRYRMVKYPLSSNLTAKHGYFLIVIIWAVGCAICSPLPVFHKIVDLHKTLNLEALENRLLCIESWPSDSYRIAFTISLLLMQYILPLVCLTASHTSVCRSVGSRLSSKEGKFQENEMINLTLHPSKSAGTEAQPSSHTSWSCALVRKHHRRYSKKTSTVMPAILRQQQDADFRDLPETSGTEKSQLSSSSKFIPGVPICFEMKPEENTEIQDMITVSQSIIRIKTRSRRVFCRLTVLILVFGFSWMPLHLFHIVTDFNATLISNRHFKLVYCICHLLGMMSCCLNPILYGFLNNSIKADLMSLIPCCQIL
outcome.measure: Ki (nM)
Report as a plain number; the unit nM is understood.

I'd like to know its Ki. The substance in question is H-GPSQPTYPGDDAPVEDLIRFYNDLQQYLNVVTRHRY-NH2 [NSC_0]
4.68
